biological target: T1, CC chemokine receptor 5 (CCR5), clone 8.5 cDNA, stably expressed on HEK 293 cells (human, UniProt P51681 1-352); assay: homologous competition against ^125I-MIP-1β on CCR5.1 cells
T1 construct: also called CC CKR5; CCR5 transfectants
T1 sequence (P51681 whole entry): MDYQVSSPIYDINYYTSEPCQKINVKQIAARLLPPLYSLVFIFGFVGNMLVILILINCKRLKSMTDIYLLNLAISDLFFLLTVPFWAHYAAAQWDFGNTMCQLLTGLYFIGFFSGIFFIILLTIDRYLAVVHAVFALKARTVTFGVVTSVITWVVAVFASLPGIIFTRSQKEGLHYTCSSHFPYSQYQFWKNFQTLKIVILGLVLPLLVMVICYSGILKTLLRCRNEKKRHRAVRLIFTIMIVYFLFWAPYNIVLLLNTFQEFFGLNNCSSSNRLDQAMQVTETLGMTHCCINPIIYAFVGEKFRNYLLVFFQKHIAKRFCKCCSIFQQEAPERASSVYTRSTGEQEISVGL
propertyMeasured: IC50

Request the reported IC50 associated with MIP-1β (ligand, human, UniProt P13236 24-92, looked up) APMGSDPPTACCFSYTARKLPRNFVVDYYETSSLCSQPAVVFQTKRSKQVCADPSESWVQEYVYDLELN
~100 nM
